System: L1210 leukemia ip in BDF1 mice, survival T/C
Assay: NCI In Vivo Anticancer Drug Screen. Data for tumor model L1210 Leukemia (intraperitoneal) in B6D2F1 (BDF1) mice
Conditions: endpoint: mean survival time; dose: 100.0 mg/kg/injection; schedule: Q04DX003 (ip); vehicle: saline; higher = longer survival
Toxic doses and inconclusive results are not listed.
As shown below, each of these molecules has a reported T/C value.
measurement_type: T/C

# molecule, endpoint_result
data = [
    ("O=C(C=C(C(F)(F)F)C(F)(F)F)c1cccs1", "98 % of control"),
    ("CCC1=C(c2ccccc2)OS(=O)(=O)NC1=O", "97 % of control"),
    ("CC(C)=C(Br)CN", "95 % of control"),
    ("N#CC1CNCCC1=N (stereo not given)", "96 % of control"),
    ("COC(=O)CCCNC(=O)/C=C1/c2cc(OC)c(OC)cc2CCC1S(=O)(=O)OC (stereo not given)", "105 % of control"),
    ("C1CN(CSCN2CCOCC2)CCO1", "106 % of control"),
    ("CC(N)CC(C)(C)N (stereo not given)", "91 % of control"),
    ("NNC(=O)c1ccncc1", "101 % of control"),
    ("O=[N+]([O-])c1ccc(N/N=C(/Cl)c2ccccc2)cc1", "98 % of control"),
    ("O=C(NCC[N+](=O)[O-])c1ccccc1", "92 % of control"),
    ("CC(=O)N(C)c1ccc(NC(=O)Nc2ccc([N+](=O)[O-])cc2Cl)cc1", "96 % of control"),
    ("Cc1c(Cl)cccc1NC(=O)c1ccccc1Cl", "122 % of control"),
    ("N#CCCCN1CCCCCC1", "101 % of control"),
    ("CC(C)(Oc1ccc(Cl)cc1)C(=O)O (tested in a mixture with another compound)", "94 % of control"),
    ("Cc1nc(=O)ccn1Cc1ccccc1", "101 % of control"),
]
